biological target: MASP-2 CCP2-SP (Homo sapiens (Human), UniProt O00187); experiment: MASP-2 co-crystallization, X-ray crystallography and structure analysis (H-bonds, van der Waals contacts); conditions: Table A6-2 pharmacophore angle
Sequence (O00187 445-686): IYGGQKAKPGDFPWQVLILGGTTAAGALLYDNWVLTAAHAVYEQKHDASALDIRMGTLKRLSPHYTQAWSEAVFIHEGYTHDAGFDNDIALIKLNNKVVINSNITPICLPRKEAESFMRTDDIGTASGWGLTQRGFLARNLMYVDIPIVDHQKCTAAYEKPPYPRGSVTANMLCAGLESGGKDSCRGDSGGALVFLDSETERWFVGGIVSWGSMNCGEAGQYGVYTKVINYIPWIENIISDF
Sequence (O00187 364-432 partner): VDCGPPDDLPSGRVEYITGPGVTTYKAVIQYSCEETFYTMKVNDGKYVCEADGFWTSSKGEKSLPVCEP
Counter-ions that a name gives are not always drawn.
The entries below are paired with their reported a(O2, N2, CA2).
Note: the reply should be a number with no unit written.

Solved cases (5 shown):
compound | quantitative_result
C[C@H](NC(=O)[C@@H](CCc1ccccc1)NCc1ccc(C(=O)N2CCOCC2)cc1)C(=O)NCc1ccc(C(=N)N)cc1.Cl.Cl [1153_B] | 150.51
C[C@H](NC(=O)[C@H]1C[C@H](Cc2ccccc2)CN1)C(=O)NCc1cc(Cl)ccc1-n1cnnn1 [compound 1371, Hydrochloride] | 155.86
Cc1nc(N)ccc1CNC(=O)[C@H](C)NC(=O)[C@H]1C[C@@H](c2ccccc2)CCN1 [compound 1253, Dihydrochloride] | 155.92
Cc1nc(N)ccc1CNC(=O)[C@H](C)NC(=O)[C@H]1C[C@@H](Cc2ccccc2)CCN1 [compound 1353] | 157.19
Cc1nc(N)ccc1CNC(=O)[C@H](C)NC(=O)[C@H]1C[C@@H](c2cccc3ccccc23)CCN1.Cl.Cl [1297_4] | 156.08

Query block: Answer with the recorded a(O2, N2, CA2) of Cc1nc(N)ccc1CNC(=O)[C@H](C)NC(=O)[C@H]1C[C@H](Cc2ccccc2)CN1 [compound 1304] only.
Result block: 156.83

Query block: Answer with the recorded a(O2, N2, CA2) of Cc1nc(N)ccc1CNC(=O)[C@H](C)NC(=O)[C@H]1C[C@@H](c2cccc3ccccc23)CCN1.Cl.Cl [1297_2] only.
Result block: 154.79

Query block: Answer with the recorded a(O2, N2, CA2) of Cc1nc(N)ccc1CNC(=O)[C@H](C)NC(=O)[C@H]1C[C@H](Cc2cc(-c3ccccc3)cs2)CN1 [compound 1399, Dihydrochloride] only.
Result block: 157.06

Query block: Answer with the recorded a(O2, N2, CA2) of C[C@H](NC(=O)[C@H](N)CCCc1ccccc1)C(=O)NCc1ccc(C(=N)N)cc1.Cl.Cl [1042_3] only.
Result block: 145.75

Query block: Answer with the recorded a(O2, N2, CA2) of C[C@H](NC(=O)[C@H]1C[C@@H](c2ccccc2)CCN1)C(=O)NCc1cnc2[nH]cc(Cl)c2c1 [compound 1433] only.
Result block: 155.75

---

The entries below are paired with their reported Pharmacophore protein distance to SER_611.
biological target: MASP-2 CCP2-SP (Homo sapiens (Human), UniProt O00187); assay: MASP-2 co-crystallization, X-ray crystallography and structure analysis (H-bonds, van der Waals contacts); details: Table A8-6; nearest protein atom in cell to the left
Note: the reply should be a number with no unit written.

Solved cases (3 shown):
compound | tgt | quantitative_result
C[C@H](NC(=O)[C@H](N)CCCc1ccccc1)C(=O)NCc1ccc(C(=N)N)cc1.Cl.Cl [1042_1] | MASP-2 CCP2-SP (Homo sapiens (Human), UniProt O00187) | 2.14
C[C@H](NC(=O)[C@H]1C[C@@H](c2ccccc2)CN1)C(=O)NCc1ccc(C(=N)N)cc1 | MASP-2 CCP2-SP (Homo sapiens (Human), UniProt O00187) | 2.19
C[C@H](NC(=O)[C@H](N)C1Cc2ccccc2C1)C(=O)NCc1ccc2c(N)nccc2c1.Cl.Cl [1088_B] | MASP-2 CCP2-SP (Homo sapiens (Human), UniProt O00187) | 2.71

# context switch: different compound, same Pharmacophore protein distance to SER_611
Query block: Answer with the recorded Pharmacophore protein distance to SER_611 of C[C@H](NC(=O)[C@H]1Cc2c([nH]c3ccccc23)CN1)C(=O)NCc1ccc(C(=N)N)cc1.Cl.Cl [1097_2] only.
Result block: 3.29

---

molecular target: MASP-2 CCP2-SP (Homo sapiens (Human), UniProt O00187); assay: MASP-2 co-crystallization, X-ray crystallography and structure analysis (H-bonds, van der Waals contacts); conditions: Table A4-1; element CA2;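 on Ligand-pharmacophore element distance, pharmacophore element CA2: distance from averaged pharmacophore element to bound ligand; missing value means element absent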
endpoint_label: Ligand-pharmacophore element distance, pharmacophore element CA2
Note: the reply should be a number with no unit written.

Solved cases (3 shown):
compound | quantitative_result
Cc1nc(N)ccc1CNC(=O)[C@H](C)NC(=O)c1cc(Cc2ccccc2)n[nH]1 [compound 1367] | 0.57
Cc1nc(N)ccc1CNC(=O)[C@H](C)NC(=O)[C@H]1C[C@H](Cc2cccc(Cl)c2)CN1.Cl.Cl [1328_4] | 0.3
C[C@H](NC(=O)[C@H]1C[C@@H](c2ccccc2)CCN1)C(=O)NCc1cc(Cl)ccc1O.Cl [1078_5] | 0.6

# context switch: different compound, same Ligand-pharmacophore element distance, pharmacophore element CA2
Query block: Answer with the recorded Ligand-pharmacophore element distance, pharmacophore element CA2 of Cc1nc(N)ccc1CNC(=O)[C@H](C)NC(=O)[C@H]1C[C@H](Cc2ccccc2)CN1 [compound 1304] only.
Result block: 0.23

---

biological target: MASP-2 CCP2-SP (Homo sapiens (Human), UniProt O00187); assay: MASP-2 co-crystallization, X-ray crystallography and structure analysis (H-bonds, van der Waals contacts); conditions: Table A6-1 pharmacophore angle
Where a name gives a salt, the structure may show the parent alone.
endpoint_label: a(C3, CA1, O1)
Note: the reply should be a number with no unit written.

Solved cases (4 shown):
compound | quantitative_result
Cc1cccc([C@H]2CN[C@@H](C(=O)N[C@@H](C)C(=O)NCc3ccc(N)nc3C)C2)c1 [compound 1257, Dihydrochloride] | 150.46
Cc1nc(N)ccc1CNC(=O)C(C)NC(=O)C1CC(c2cccc3ccccc23)CCN1.Cl.Cl (stereo not shown) [1297_1] | 149.59
Cc1nc(N)ccc1CNC(=O)[C@H](C)NC(=O)[C@H]1C[C@@H](c2cccc3ccccc23)CCN1.Cl.Cl [1297_2] | 150.01
Cc1nc(N)ccc1CNC(=O)[C@H](C)NC(=O)c1cc(Cc2ccccc2)n[nH]1 | 149.67

Query block: Answer with the recorded a(C3, CA1, O1) of Cc1nc(N)ccc1CNC(=O)[C@H](C)NC(=O)[C@H]1C[C@H](Cc2ccccc2)CN1 only.
Result block: 149.82

Query block: Answer with the recorded a(C3, CA1, O1) of Cc1nc(N)ccc1CNC(=O)[C@H](C)NC(=O)[C@H]1C[C@H](Cc2cccc(Cl)c2)CN1.Cl.Cl [1328_1] only.
Result block: 150.62

Query block: Answer with the recorded a(C3, CA1, O1) of Cc1nc(N)ccc1CNC(=O)[C@H](C)NC(=O)[C@H]1C[C@H](Cc2cccc(Cl)c2)CN1.Cl.Cl [1328_2] only.
Result block: 150.10

---

The entries below are paired with their reported H-bond distance to MASP-2 GLY 656 atom O.
target: MASP-2 CCP2-SP (Homo sapiens (Human)); assay: MASP-2 co-crystallization, X-ray crystallography and structure analysis (H-bonds, van der Waals contacts); conditions: Table A1 (H-Bonds); GLY 656 O
Where a name gives a salt, the structure may show the parent alone.
Note: the reply should be a number with no unit written.

Solved cases (2 shown):
molecule | quantitative_result
Cc1nc(N)ccc1CNC(=O)[C@H](C)NC(=O)[C@H]1C[C@H](Cc2ccccc2)CN1 | 2.81
Cc1nc(N)ccc1CNC(=O)[C@H](C)NC(=O)[C@H]1C[C@H](Cc2ccccc2Br)CN1 [compound 1372, Di-trifluoroacetate salt] | 2.81

Query block: Answer with the recorded H-bond distance to MASP-2 GLY 656 atom O of Cc1cc(Cl)cc(CNC(=O)[C@H](C)NC(=O)[C@H]2C[C@H](Cc3ccccc3)CN2)c1O only.
Result block: 2.86

Query block: Answer with the recorded H-bond distance to MASP-2 GLY 656 atom O of Cc1nc(N)ccc1CNC(=O)[C@H](C)NC(=O)[C@H]1C[C@H](Cc2ccc(-c3ccccc3)cc2)CN1 only.
Result block: 2.76

Query block: Answer with the recorded H-bond distance to MASP-2 GLY 656 atom O of C[C@H](NC(=O)c1cc(-c2ccccc2)c[nH]1)C(=O)NCc1ccc(C(=N)N)cc1 only.
Result block: 2.82

Query block: Answer with the recorded H-bond distance to MASP-2 GLY 656 atom O of Cc1nc(N)ccc1CNC(=O)[C@H](C)NC(=O)[C@H]1C[C@H](Cc2ccc3ccccc3c2)CN1 only.
Result block: 2.78

Query block: Answer with the recorded H-bond distance to MASP-2 GLY 656 atom O of Cc1nc(N)ccc1CNC(=O)[C@H](C)NC(=O)[C@H]1C[C@H](Cc2cccc(-c3ccccc3)c2)CN1 only.
Result block: 2.76

---

biological target: MASP-2 CCP2-SP (Homo sapiens (Human), UniProt O00187); assay: MASP-2 co-crystallization, X-ray crystallography and structure analysis (H-bonds, van der Waals contacts); parameters: unit not given beside the values; details: Table A5-2 pharmacophore distance, S3/S4 region
Where a name gives a salt, the structure may show the parent alone.
The entries below are paired with their reported d(N2,C2).
Note: the reply should be a number with no unit written.

Solved cases (4 shown):
molecule | d(N2,C2)
C[C@H](NC(=O)[C@H]1C[C@@H](c2ccccc2)CCN1)C(=O)NCc1cc(Cl)ccc1O.Cl [1078_14] | 1.45
C[C@H](NC(=O)[C@H]1C[C@@H](c2ccccc2)CCN1)C(=O)NCc1cc(Cl)ccc1O.Cl [1078_12] | 1.45
Cc1nc(N)ccc1CNC(=O)[C@H](C)NC(=O)[C@H]1C[C@@H](c2cccc3ccccc23)CCN1.Cl.Cl [1297_4] | 1.47
N=C(N)c1ccc(CNC(=O)C(CF)NC(=O)[C@H](N)CCc2ccccc2)cc1 (some centres unmarked) [compound 1050, Dihydrochloride] | 6.69

Query block: Answer with the recorded d(N2,C2) of C[C@H](NC(=O)[C@H]1C[C@@H](c2ccccc2)CCN1)C(=O)NCc1cc(Cl)ccc1O.Cl [1078_15] only.
Result block: 1.45

Every entry's value here was drawn from patent US12195427B2.
